- test system: Human rhB7-H3 (human) (UniProt Q5ZPR3)
- assay overview: SPR (Biacore 8K/T200), Fab-SASA captured on immobilised albumin, B7-H3 as analyte, 1:1 model
observed property: koff (s⁻¹)

>  <binder>
AHF15938 Fab-SASA (Fab, V domains shown) VH: QVQLVQSGAEVKKPGASVKVSCKASGYTFTSYVMHWVRQAPGQRLEWMGYINSYSDGTKYNEKFKGRATITRDTSASTAYMELSSLRSEDTAVYYCARWGGLGNGAMDYWGQGTLVTVSS VL: EIVLTQSPATLSLSPGERATLSCSVSSSVNYMHWYQQKPGQAPRRLIYDTSKLASGIPARFSGSGSGTDYTLTISSLEPEDFAVYYCQQWTSNPLTFGQGTKLEIK

>  <measurement unit>
s⁻¹

>  <measured>
1.97e-06

$$$$
